# literature pull: 72 kDa type IV collagenase (Homo sapiens, UniProt P08253) IC50
# Sequence (P08253 whole entry): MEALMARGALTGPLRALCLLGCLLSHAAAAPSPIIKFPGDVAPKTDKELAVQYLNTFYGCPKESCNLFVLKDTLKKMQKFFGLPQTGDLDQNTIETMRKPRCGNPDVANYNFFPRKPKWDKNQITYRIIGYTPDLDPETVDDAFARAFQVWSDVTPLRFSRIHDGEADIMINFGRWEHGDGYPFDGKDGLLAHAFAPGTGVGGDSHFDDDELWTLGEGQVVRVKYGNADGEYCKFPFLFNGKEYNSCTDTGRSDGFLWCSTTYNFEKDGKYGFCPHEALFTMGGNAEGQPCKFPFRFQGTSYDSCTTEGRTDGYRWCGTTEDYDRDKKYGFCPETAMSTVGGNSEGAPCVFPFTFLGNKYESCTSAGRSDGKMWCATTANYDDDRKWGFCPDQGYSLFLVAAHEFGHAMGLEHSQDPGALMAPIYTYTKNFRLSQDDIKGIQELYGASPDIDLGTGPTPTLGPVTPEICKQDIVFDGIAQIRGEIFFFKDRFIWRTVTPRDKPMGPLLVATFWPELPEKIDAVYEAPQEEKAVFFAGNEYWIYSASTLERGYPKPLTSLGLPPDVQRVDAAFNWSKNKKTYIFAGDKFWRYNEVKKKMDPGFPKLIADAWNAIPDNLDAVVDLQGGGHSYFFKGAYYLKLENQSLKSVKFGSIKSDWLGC

# CHEMICAL STRING, IC50
records = [
    ("COc1ccc(-c2ccc(S(=O)(=O)Cn3cccc(O)c3=O)cc2)cc1", "> 1 µM"),
    ("c1ccc(CCn2cc(C3=NCCO3)nn2)cc1", "> 150 µM"),
    ("CCCCCc1ccc(C(=O)Nc2ccc(S(=O)(=O)N(CCN3CCOCC3)[C@@H](C(=O)NO)C(C)C)cc2)cc1", "< 0.0001 µM"),
]

###

pIC50: −log10 of the molar value.
# literature pull: UniProt:P08253 pIC50

# CHEMICAL STRING, pIC50
measured = [
    ("O=C(O)[C@@H](Cc1c[nH]c2ccccc12)NS(=O)(=O)c1cccc2ccccc12", "< 4.70"),
    ("O=C(N[C@H](Cc1ccccc1)C(=O)O)c1ccc(-c2ccccc2)cc1", "< 6.00"),
    ("O=C(O)[C@H]1CCC(=O)N1Cc1ccc(Cl)cc1", "< 3.30"),
]
